TESTED SYSTEM: RSV F protein of recombinant mKate-RSV, subtype A (strain A2) (Respiratory syncytial virus subtype A …, UniProt P03420 26-574)
ASSAY SUMMARY: cell-based or functional assay
We use 0.03 µg/mL as the dividing line for Neut IC50 subtype A: on or above the line is yes (1), below is no (0).

BINDER: ADI-14505 (antibody, V domains shown) VH: QVQLVQSGAEVKKPGASVKVSCKASGNSFNDFYMHWVRQAPGQGLEWMGWIDPNNGGANYAQKFHGRVTMTRDSSINTAYMELSRLRSDDTAVYYCASEPPGVGFGLIPHYYFDNWGQGTLVTVSS VL: EIVMTQSPDSLAVSLGERATINCKSSQNVLDTSNNKNYLAWYQQKPGQPPRLLIYWASARGSGVPDRFSGSGSGTHFTLTISSLQAEDVAVYYCQQYFSIPPTFGQGTKVEIK
CLASS NAME: yes (1)
--
BINDER: ADI-14508 (antibody, V domains shown) VH: QVQLVQSGTEVKKPGASVKVSCKGSGYMFANFGVSWVRQAPGRGLEWIGWISAYNGNTYYGREQGRFTMTTDTNTAYLELTSLRYDDTALYFCARDSGATAAGILWDYWGQGTLVTVSS VL: EIVMTQSPLSLPVTLGQPASISCRSSQSLAYTDGSTYLNWFHQRPGQSPRRLIYKVFNRDSGVPDRFSGSGAGTDFTLTISRVEAEDVGVYYCMQATHWPRTFGQGTKVDIK
CLASS NAME: no (0)
--
BINDER: ADI-14442 (antibody, V domains shown) VH: QVQLVQSGSEVKKPGASVKVSCKASGYRFSNYGISWVRQAPGQGLEWMGWISAYNGNIKYGNNLQGRVTVTTDTSTATAYMEVRSLTSDDTAVYYCARDVPADGVHFMDVWGQGTLVTVSS VL: EIVMTQSPLSLPVTLGQPASISCRSSQSLVHSDTNTYLNWFQQRPGQSPRRLIYKVSNRDSGVPDRFSGSGSGTTFTLKISRVEAEDVGIYYCMQGSHWAPTFGQGTKVEIK
CLASS NAME: no (0)
--
BINDER: ADI-14465 (antibody, V domains shown) VH: QVQLLESGAGLLKPSETLSLTCSLSGGSFRDFYWAWIRQAPGRGLEWIGDINDGGNTNHSPSLKSRAILSIDASKRQFSLRLTSVTAADTAVYYCARQRLEHTASGYYMDVWGNGTTVTVSS VL: QSVLTQPPSVSVDPGETATITCGGANIGSKNVYWYQQRPGQAPVLVVYDDIDRPAGIPDRFTDSSSGNTVTLTIYSVEAVDEADYFCQVWDNSSDQPVFGGGTKLTVL
CLASS NAME: yes (1)
--
BINDER: ADI-14491 (antibody, V domains shown, full-length IgG (yeast-expressed); also called Antibody Number 52; Ab# 52) VH: EVQLVESGGGVVQPGRSLRLSCAASGFTFSDHAMYWVRQAPGKGLEWVALISFDGRNIYYADSVKGRFTISRDNSKNTLYLQMNSLRAEDTAVYYCARDQWLVPDYWGQGTLVTVSS VL: QSVLTQPASVSGSPGQSITISCTGTSSDVGGYNYVSWYQQHPGNAPKLMIYEVSKRPSGVPDRFSGFKSGNTASLTVSGLQAEDEADYYCSSYAGSNSVFGTGTKVTVL
CLASS NAME: yes (1)
